The entries below come with measured PV neutralization % (Ab 1 ug/mL) values attached.
molecular target: SARS-CoV-2 spike protein bearing furin mutation and truncation in retention sequence, presented in t (SARS-CoV-2, UniProt P0DTC2 14-1273); assay: cell-based or functional assay
Note: a bare number is incomplete; add the unit.

| Binder | Observed measurement |
| --- | --- |
| YANG-2306 (antibody, V domains shown) VH: QVQLVQSGAEVKKPGASVKVSCKVSGYTLPEISIHWVRQAPGKGLEWMGGFDPEDGETIYAQKFQGRVIMTEDTSTDTAYMDLSSLRSEDTAVYFCAAAPAIASASTFWLDPWGQGTLVTVST VL: QSALTQPPSASGSPGQSVTISCTGTSSDVGGYNYVSWYQQHPGKAPKLMIYEVTKRPSGVPDRFSGSKSDNTASLTVSGLQAEDEADYYCSSYAGSNNLVFGGGTKLTVL | 60.4% |
| YANG-2302 (antibody, V domains shown) VH: QVQLVQSGAEVRKPGASVKVSCKVSGYTLPELAIHWVRQAPGKGLEWMGGFIPEDGDTIYAQKFQGRVTMTEDTSTDTAYMDLTSLRSEDAAVYYCTSGWAAPGYNYGMAVWGQGTTVTVSS VL: EVVLTQSPGTLSLSSGERATLSCRASQSVSSNYLAWYQKKPGQAPRLLIYGASSRVTGIPDRFGGSGSGTDFTLTISRLEPEDFAVYYCQQYDASPYSFGQGTKLDIK | 52.2% |

Could you now consider this next binder?
# PV neutralization % (Ab 1 ug/mL) lookup, item YANG-2208 (antibody, V domains shown) VH: QIQLVQSGAEVRKPGASVRFSCKTSGYIFTNYYMVWVRQAPGQGLEWMGIIKPSGGNTIYAQKFQGRVTMTRDTSTNTVYMDLNNLRSEDTAVYFCARTGDRAFDVWGQGTMVTVSS VL: QSVLTQPPSMSAAPGQKVTISCSGNSSNIGNNFVSWYRQFPGTAPKLLIYDNNKRPSGIPDRFSGSKSGTSATLGITGLQTGDEADYYCGTWDSSLSAGVFGGGTKLTVL
38.2%
